Measured on: rat GHS-R (GHS receptor) expressed on CHO-GHSR62 cells (rat, UniProt O08725 1-364)
Sequence (O08725 whole entry): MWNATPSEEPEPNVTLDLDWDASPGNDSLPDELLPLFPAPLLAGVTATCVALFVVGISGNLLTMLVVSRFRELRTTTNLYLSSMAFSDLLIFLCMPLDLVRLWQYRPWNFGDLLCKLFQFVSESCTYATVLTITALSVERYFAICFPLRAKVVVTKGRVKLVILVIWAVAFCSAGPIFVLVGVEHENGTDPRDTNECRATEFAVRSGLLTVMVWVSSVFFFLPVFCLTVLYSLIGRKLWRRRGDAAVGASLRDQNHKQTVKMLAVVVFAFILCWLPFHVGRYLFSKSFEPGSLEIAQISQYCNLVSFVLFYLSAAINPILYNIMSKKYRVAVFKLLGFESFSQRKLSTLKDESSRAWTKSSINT
Assay details: cell-based or functional assay
Ends that are not written are not given here. * marks the point of attachment. Octanoyl = CCCCCCCC(=O)*
Parameter measured: Ca-releasing activity EC50 (nM)

Recorded results for 2 binders are shown here.
In: Give the measured Ca-releasing activity EC50 of GS(Octanoyl)SFLSPEH-NH2 (N-terminus assumed; SMILES CCCCCCCC(=O)OC[C@H](NC(=O)CN)C(=O)N[C@@H](CO)C(=O)N[C@@H](Cc1ccccc1)C(=O)N[C@@H](CC(C)C)C(=O)N[C@@H](CO)C(=O)N1CCC[C@H]1C(=O)N[C@@H](CCC(=O)O)C(=O)N[C@@H](Cc1c[nH]cn1)C(N)=O) [[Ser^2(Octanoyl), Ser^3]-Ghrelin (1-9)-amide] .
Out: 1100

In: Look up Ca-releasing activity EC50 for this binder: GSS(Octanoyl)FLSPEH-NH2 (N-terminus assumed; SMILES CCCCCCCC(=O)OC[C@H](NC(=O)[C@H](CO)NC(=O)CN)C(=O)N[C@@H](Cc1ccccc1)C(=O)N[C@@H](CC(C)C)C(=O)N[C@@H](CO)C(=O)N1CCC[C@H]1C(=O)N[C@@H](CCC(=O)O)C(=O)N[C@@H](Cc1c[nH]cn1)C(N)=O) [Ghrelin (1-9)-amide]
Out: 5.4

A: GSS(Octanoyl)FLSPEHQKAQQRKESKKPPAKLQPR [rat ghrelin]
B: GS(Octanoyl)S(Octanoyl)FLSPEH-NH2 [[Ser^2(Octanoyl)]-Ghrelin (1-9)-amide]
In: For A and B , which recorded Ca-releasing activity EC50 is lower? Write down the label attached to your selection.
Out: A
